- EXPERIMENTAL_TARGET: OPRM1 (Homo sapiens)
- Construct: purchased Promega (in-house HiBiT-GPCR construct library, NanoBRET)
- Sequence (P35372 whole entry): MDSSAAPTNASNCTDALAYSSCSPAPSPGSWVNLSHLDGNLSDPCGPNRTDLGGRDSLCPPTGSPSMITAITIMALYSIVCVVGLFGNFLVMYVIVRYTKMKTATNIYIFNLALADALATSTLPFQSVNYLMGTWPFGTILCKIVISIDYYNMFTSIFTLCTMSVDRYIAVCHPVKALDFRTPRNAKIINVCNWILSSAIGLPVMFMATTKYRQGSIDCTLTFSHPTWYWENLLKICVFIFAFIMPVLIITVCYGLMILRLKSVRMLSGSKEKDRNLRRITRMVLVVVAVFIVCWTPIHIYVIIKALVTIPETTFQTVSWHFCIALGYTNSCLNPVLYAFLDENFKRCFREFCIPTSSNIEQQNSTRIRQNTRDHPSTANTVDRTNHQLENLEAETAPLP
- ASSAY_METHOD_TEXT: NanoBRET screen HiBiT-OPRM1 in HEK293
- Type: binding
- RUN_CONDITIONS: OPRM1; tracer 0.1μM
Kindly supply the reported NanoBRET Fold Response values for the records listed here.

Sample records with NanoBRET Fold Response:
{"columns": ["COMPOUND", "EXPERIMENTAL_TARGET", "NanoBRET Fold Response"],
 "data": [
  ["CCCn1c(=O)c2[nH]c(-c3ccc(OCC(=O)NCCNC(=O)CCOCCNC(=O)c4ccc(CNC(=O)CCc5ccc6n5[B-](F)(F)[N+]5=C(c7ccc[nH]7)C=CC5=C6)cc4)cc3)nc2n(CCC)c1=O [XAC-3-NB590]", "OPRM1 (Homo sapiens)", 0.85],
  ["COc1ccccc1N1CCN(CCCCN2C(=O)c3ccc(CNC(=O)CCOCCOCCOCCOCCNC(=O)CCc4ccc5n4[B-](F)(F)[N+]4=C(c6ccc[nH]6)C=CC4=C5)cc3C2=O)CC1 [NAN-190-2-NB590]", "OPRM1 (Homo sapiens)", 0.96]
]}

Entry N#CN=C(NCCCOc1cccc(CN2CCCCC2)c1)NCCNC(=O)CCOCCOCCOCCOCCNC(=O)CCc1ccc2n1[B-](F)(F)[N+]1=C(c3ccc[nH]3)C=CC1=C2 [Aminopotentidine-2-NB590] ; NanoBRET Fold Response = 1.02

Entry source: paper PMC8151276
